Origin of measurements: the Kinase Knowledgebase extract (Sharma et al. 2016)

target: CDK2 (UniProt P24941); test: Enzyme Assay
pIC50: −log10 of the molar value.
measure_name: pIC50

Cc1cc(OCCN2CCCCC2)ccc1-c1[nH]nc2c1C(=O)c1c(NC(=O)NN3CCN(C)CC3)cccc1-2    > 7.00

Which pIC50 is reported for this compound? CC(C)c1nn(-c2c(Cl)cccc2Cl)c2nc(Cc3ccc(OP(=O)(O)O)cc3)[nH]c(=O)c12
> 8.00

Which pIC50 is reported for this compound? CC(C)c1nn(-c2c(Cl)cccc2Cl)c2nc(Cc3ccc(OCCN4CCOCC4)c(O)c3)[nH]c(=O)c12
> 7.00

Which pIC50 is reported for this compound? CCN(CCO)S(=O)(=O)c1cc(Cl)c(-n2nc(C(C)C)c3c(=O)[nH]c(Cc4ccc(OCCN5CCOCC5)cc4)nc32)c(Cl)c1
> 7.00

Which pIC50 is reported for this compound? CN(C)C(=O)COc1ccc(-c2[nH]nc3c2C(=O)c2c(NC(=O)NN4CCOCC4)cccc2-3)cc1
> 8.00
